Target: Rat NHE3 (Rattus norvegicus)
Construct: expressed in transfected cells; host or cells: Opossum kidney (OK) cells (ATCC), electroporation
Assay: Cell-based NHE3 activity under prompt conditions (OK cells, BCECF pH recovery), rat NHE3
Settings: prompt conditions
reported endpoint: Prompt Rat NHE3 pIC50
Lab note: jot the number down without any unit.

{"columns": ["compound", "reported endpoint", "measured number"],
 "data": [
  ["N=C(N)Nc1nc(-c2ccc(S(=O)(=O)NCCOCCOCCN)cc2)c2cc(Cl)ccc2n1 [compound 8]", "Prompt Rat NHE3 pIC50", 6.90],
  ["CN(CC(=O)NCCOCCOCCNC(=O)NCCOCCOCCOCCN1CCN(c2ccc(-c3nc(N=C(N)N)nc4ccc(Cl)cc34)cc2)CC1)CC(=O)NCCOCCOCCNC(=O)NCCOCCOCCOCCN1CCN(c2ccc(-c3nc(N=C(N)N)nc4ccc(Cl)cc34)cc2)CC1 [compound 45]", "Prompt Rat NHE3 pIC50", 7.50],
  ["CN1Cc2c(Cl)cc(Cl)cc2C(c2cccc(S(=O)(=O)NCCOCCOCCOCCNC(=O)CN(CCN(CCN(CC(=O)NCCOCCOCCOCCNS(=O)(=O)c3cccc([C@@H]4CN(C)Cc5c(Cl)cc(Cl)cc54)c3)CC(=O)NCCOCCOCCOCCNS(=O)(=O)c3cccc([C@@H]4CN(C)Cc5c(Cl)cc(Cl)cc54)c3)CC(=O)NCCOCCOCCOCCNS(=O)(=O)c3cccc([C@@H]4CN(C)Cc5c(Cl)cc(Cl)cc54)c3)CC(=O)NCCOCCOCCOCCNS(=O)(=O)c3cccc([C@@H]4CN(C)Cc5c(Cl)cc(Cl)cc54)c3)c2)C1 (stereo in doubt) [compound 75]", "Prompt Rat NHE3 pIC50", 6.30],
  ["NC(N)=Nc1nc(-c2ccc(N3CCN(CCOCCOCCNC(=O)[C@H](O)[C@@H](O)C(=O)NCCOCCOCCN4CCN(c5ccc(-c6nc(N=C(N)N)nc7ccc(Cl)cc67)cc5)CC4)CC3)cc2)c2cc(Cl)ccc2n1 [compound 17]", "Prompt Rat NHE3 pIC50", 7.10],
  ["C/C(=C\\c1cc(F)c(Oc2ccc(S(=O)(=O)NCCOCCOCCOCCNC(=O)OCCOCCOCCOC(=O)NCCOCCOCCOCCNS(=O)(=O)c3ccc(Oc4c(F)cc(/C=C(\\C)C(=O)N=C(N)N)cc4F)cc3)cc2)c(F)c1)C(=O)N=C(N)N [compound 26]", "Prompt Rat NHE3 pIC50", 7.50],
  ["CN1Cc2c(Cl)cc(Cl)cc2[C@H](c2cccc(S(=O)(=O)NCCOCCOCCOCCNC(=O)CN(CCN(CC(=O)O)CC(=O)NCCOCCOCCOCCNS(=O)(=O)c3cccc([C@@H]4CN(C)Cc5c(Cl)cc(Cl)cc54)c3)CC(=O)O)c2)C1 [compound 67]", "Prompt Rat NHE3 pIC50", 8.00]
]}

input: Consider the compound CN1Cc2c(Cl)cc(Cl)cc2[C@H](c2cccc(S(=O)(=O)NCCOCCOCCNC(=O)NCCN(CCNC(=O)NCCOCCOCCNS(=O)(=O)c3cccc([C@@H]4CN(C)Cc5c(Cl)cc(Cl)cc54)c3)C(=O)NCCOCCOCCNC(=O)c3ccc(-c4ccc(Cl)cc4)cc3)c2)C1 [compound 110] and give its recorded Prompt Rat NHE3 pIC50.
output: 5.80

input: Consider the compound N[C@@H]1CCCN([C@H]2Cc3c(Cl)cc(Cl)cc3[C@@H]2Oc2ccc(S(=O)(=O)NCCOCCOCCNC(=O)NCCCCNC(=O)NCCOCCOCCNS(=O)(=O)c3ccc(O[C@H]4c5cc(Cl)cc(Cl)c5C[C@@H]4N4CCC[C@@H](N)C4)cc3)cc2)C1 [compound 135] and give its recorded Prompt Rat NHE3 pIC50.
output: 7.40

input: Consider the compound CC(C)(C(=O)NCCOCCOCCOCCNS(=O)(=O)c1ccc(O[C@H]2c3ccccc3C[C@@H]2N2CCCCC2)cc1)C(=O)NCCOCCOCCOCCNS(=O)(=O)c1ccc(O[C@H]2c3ccccc3C[C@@H]2N2CCCCC2)cc1 [compound 119] and give its recorded Prompt Rat NHE3 pIC50.
output: 8.70

====

The following compounds are shown together with reported Prompt Rat NHE3 pIC50 values.
Target: Rat NHE3 (Rattus norvegicus, UniProt P26433)
Construct: expressed in transfected cells; host or cells: Opossum kidney (OK) cells (ATCC), electroporation
Sequence (P26433 29-831): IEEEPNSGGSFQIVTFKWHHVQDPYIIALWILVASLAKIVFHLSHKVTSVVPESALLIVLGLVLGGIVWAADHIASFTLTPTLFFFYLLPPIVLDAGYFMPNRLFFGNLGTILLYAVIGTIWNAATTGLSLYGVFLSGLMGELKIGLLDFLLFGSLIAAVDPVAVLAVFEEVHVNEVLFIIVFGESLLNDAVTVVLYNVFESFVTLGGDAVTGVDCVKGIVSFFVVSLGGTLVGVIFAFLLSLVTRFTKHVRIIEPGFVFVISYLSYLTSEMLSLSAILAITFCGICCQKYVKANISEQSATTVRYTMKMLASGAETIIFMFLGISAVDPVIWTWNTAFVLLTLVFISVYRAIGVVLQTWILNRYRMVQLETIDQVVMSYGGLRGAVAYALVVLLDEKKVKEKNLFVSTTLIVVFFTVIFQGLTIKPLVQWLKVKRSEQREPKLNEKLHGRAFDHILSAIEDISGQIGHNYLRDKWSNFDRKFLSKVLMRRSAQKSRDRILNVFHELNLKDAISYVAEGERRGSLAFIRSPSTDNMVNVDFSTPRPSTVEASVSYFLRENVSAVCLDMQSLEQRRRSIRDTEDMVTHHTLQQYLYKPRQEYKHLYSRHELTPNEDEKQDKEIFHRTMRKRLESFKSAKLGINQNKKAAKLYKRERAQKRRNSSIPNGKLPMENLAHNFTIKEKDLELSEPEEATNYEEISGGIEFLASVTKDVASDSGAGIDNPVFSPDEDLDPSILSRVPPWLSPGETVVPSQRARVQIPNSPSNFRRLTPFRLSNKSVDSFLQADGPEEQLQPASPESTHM
Experiment: Cell-based NHE3 activity under prompt conditions (OK cells, BCECF pH recovery), rat NHE3
Details: prompt conditions

# annotated cases, reported Prompt Rat NHE3 pIC50 shown
{"columns": ["compound", "result"],
 "data": [
  ["CN1Cc2c(Cl)cc(Cl)cc2[C@H](c2cccc(S(=O)(=O)NCCOCCOCCN(C)C(=O)CCC(N)(CCC(=O)N(C)CCOCCOCCNS(=O)(=O)c3cccc([C@@H]4CN(C)Cc5c(Cl)cc(Cl)cc54)c3)CCC(=O)N(C)CCOCCOCCNS(=O)(=O)c3cccc([C@@H]4CN(C)Cc5c(Cl)cc(Cl)cc54)c3)c2)C1 [compound 175]", 7.80],
  ["O=C(NCCCCNC(=O)NCCOCCOCCNS(=O)(=O)c1ccc(O[C@H]2c3ccccc3C[C@@H]2N2CCCC2)cc1)NCCOCCOCCNS(=O)(=O)c1ccc(O[C@H]2c3ccccc3C[C@@H]2N2CCCC2)cc1 [compound 99]", 8.60],
  ["CN1Cc2c(Cl)cc(Cl)cc2[C@H](c2cccc(S(=O)(=O)NCCOCCOCCNC(=O)NCCC(CCNC(=O)NCCOCCOCCNS(=O)(=O)c3cccc([C@@H]4CN(C)Cc5c(Cl)cc(Cl)cc54)c3)(CCNC(=O)NCCOCCOCCNS(=O)(=O)c3cccc([C@@H]4CN(C)Cc5c(Cl)cc(Cl)cc54)c3)NC(=O)COCC(=O)O)c2)C1 [compound 172]", 8.20],
  ["CN1Cc2c(Cl)cc(Cl)cc2[C@H](c2cccc(S(=O)(=O)NCCOCCOCCNC(=O)CCC(CCC(=O)NCCOCCOCCNS(=O)(=O)c3cccc([C@@H]4CN(C)Cc5c(Cl)cc(Cl)cc54)c3)(CCC(=O)NCCOCCOCCNS(=O)(=O)c3cccc([C@@H]4CN(C)Cc5c(Cl)cc(Cl)cc54)c3)NC(=O)NC[C@H](O)[C@@H](O)[C@H](O)[C@H](O)CO)c2)C1 [compound 143]", 7.25],
  ["CN(C)[C@H]1Cc2ccc(Cl)cc2[C@@H]1Oc1ccc(S(=O)(=O)NCCOCCOCCNC(=O)NCCCCNC(=O)NCCOCCOCCNS(=O)(=O)c2ccc(O[C@H]3c4cc(Cl)ccc4C[C@@H]3N(C)C)cc2)cc1 [compound 116]", "<5.00"]
]}

input: Consider the compound CCC(=O)NCCOCCOCCOCCNS(=O)(=O)c1cccc([C@@H]2CN(C)Cc3c(Cl)cc(Cl)cc32)c1 [compound 103] and give its recorded Prompt Rat NHE3 pIC50.
output: 6.70

input: Consider the compound O=C(NCCOCCOCCNS(=O)(=O)c1ccc(O[C@H]2c3ccccc3C[C@@H]2N2CCCCC2)cc1)[C@H](O)[C@@H](O)C(=O)NCCOCCOCCNS(=O)(=O)c1ccc(O[C@H]2c3ccccc3C[C@@H]2N2CCCCC2)cc1 [compound 98] and give its recorded Prompt Rat NHE3 pIC50.
output: 8.40

====

Test system: absorption of sodium from the intestinal lumen
Experiment: Inhibition of intestinal sodium absorption: urinary sodium (uNa) 16 h after single oral dose in rats
Type: in vivo, rat
Conditions: oral gavage, dose 10 mg/kg, 16 h post-dose
The following compounds are shown together with reported Urine Na % of control values.
Please give a number only; it is taken to be in %.

# annotated cases, reported Urine Na % of control shown
{"columns": ["compound", "Urine Na % of control (%)"],
 "data": [
  ["CN1Cc2c(Cl)cc(Cl)cc2[C@H](c2cccc(S(=O)(=O)NCCOCCOCCNC(=O)CCC(N)(CCC(=O)NCCOCCOCCNS(=O)(=O)c3cccc([C@@H]4CN(C)Cc5c(Cl)cc(Cl)cc54)c3)CCC(=O)NCCOCCOCCNS(=O)(=O)c3cccc([C@@H]4CN(C)Cc5c(Cl)cc(Cl)cc54)c3)c2)C1", 21],
  ["CN1Cc2c(Cl)cc(Cl)cc2[C@H](c2cccc(S(=O)(=O)NCCOCCOCCOCCNC(=O)CN3CCN(CC(=O)NCCOCCOCCOCCNS(=O)(=O)c4cccc([C@@H]5CN(C)Cc6c(Cl)cc(Cl)cc65)c4)CCN(CC(=O)NCCOCCOCCOCCNS(=O)(=O)c4cccc([C@@H]5CN(C)Cc6c(Cl)cc(Cl)cc65)c4)CCN(CC(=O)NCCOCCOCCOCCNS(=O)(=O)c4cccc([C@@H]5CN(C)Cc6c(Cl)cc(Cl)cc65)c4)CC3)c2)C1", 82],
  ["N=C(N)Nc1nc(-c2cccc(S(=O)(=O)NCCOCCOCCOCCN)c2)c2cc(Cl)ccc2n1", 82],
  ["CN1Cc2c(Cl)cc(Cl)cc2[C@H](c2cccc(S(=O)(=O)NCCOCCOCCNC(=O)N(C)CCCN(CCCN(C)C(=O)NCCOCCOCCNS(=O)(=O)c3cccc([C@@H]4CN(C)Cc5c(Cl)cc(Cl)cc54)c3)CCCN(C)C(=O)NCCOCCOCCNS(=O)(=O)c3cccc([C@@H]4CN(C)Cc5c(Cl)cc(Cl)cc54)c3)c2)C1", 28],
  ["N=C(N)Nc1nc(-c2ccc(N3CCN(CCOCCOCCOCCNC(=O)CCOCCOCCOCCOCCOCCC(=O)NCCOCCOCCOCCN4CCN(c5ccc(-c6nc(NC(=N)N)nc7ccc(Cl)cc67)cc5)CC4)CC3)cc2)c2cc(Cl)ccc2n1", 100]
]}

input: # return Urine Na % of control for `CN1Cc2c(Cl)cc(Cl)cc2[C@@H](c2cccc(S(=O)(=O)NCCOCCOCCNC(=O)NCCCCNC(=O)NCCOCCOCCNS(=O)(=O)c3cccc([C@H]4CN(C)Cc5c(Cl)cc(Cl)cc54)c3)c2)C1` , test system: absorption of sodium from the intestinal lumen
output: 90

input: # return Urine Na % of control for `CN(CC(=O)NCCOCCOCCNC(=O)NCCOCCOCCOCCOc1ccc(-c2nc(NC(=N)N)nc3ccc(Cl)cc23)cc1)CC(=O)NCCOCCOCCNC(=O)NCCOCCOCCOCCOc1ccc(-c2nc(NC(=N)N)nc3ccc(Cl)cc23)cc1` , test system: absorption of sodium from the intestinal lumen
output: 76

input: # return Urine Na % of control for `CN1Cc2c(Cl)cc(Cl)cc2[C@H](c2cccc(S(=O)(=O)NCCOCCOCCOCCNC(=O)NCCCN(CCCNC(=O)NCCOCCOCCOCCNS(=O)(=O)c3cccc([C@@H]4CN(C)Cc5c(Cl)cc(Cl)cc54)c3)CCCNC(=O)NCCOCCOCCOCCNS(=O)(=O)c3cccc([C@@H]4CN(C)Cc5c(Cl)cc(Cl)cc54)c3)c2)C1` , test system: absorption of sodium from the intestinal lumen
output: 34

input: # return Urine Na % of control for `CN(C)[C@H]1Cc2c(F)cc(Cl)cc2[C@@H]1Oc1ccc(S(=O)(=O)NCCOCCOCCNC(=O)NCCCCNC(=O)NCCOCCOCCNS(=O)(=O)c2ccc(O[C@H]3c4cc(Cl)cc(F)c4C[C@@H]3N(C)C)cc2)cc1` , test system: absorption of sodium from the intestinal lumen
output: 111

input: # return Urine Na % of control for `O=C(NCCCCNC(=O)NCCOCCOCCNS(=O)(=O)c1ccc(O[C@H]2c3cc(Cl)cc(F)c3C[C@@H]2N2CCCCC2)cc1)NCCOCCOCCNS(=O)(=O)c1ccc(O[C@H]2c3cc(Cl)cc(F)c3C[C@@H]2N2CCCCC2)cc1` , test system: absorption of sodium from the intestinal lumen
output: 108

input: # return Urine Na % of control for O=C(NCCCCNC(=O)NCCOCCOCCOCCNS(=O)(=O)c1ccc(O[C@H]2c3ccccc3C[C@@H]2N2CCCCC2)cc1)NCCOCCOCCOCCNS(=O)(=O)c1ccc(O[C@H]2c3ccccc3C[C@@H]2N2CCCCC2)cc1 [compound 72] , test system: absorption of sodium from the intestinal lumen
output: 33

input: # return Urine Na % of control for `CN(C)[C@H]1Cc2ccc(Cl)cc2[C@@H]1Oc1ccc(S(=O)(=O)NCCOCCOCCNC(=O)NCCCCNC(=O)NCCOCCOCCNS(=O)(=O)c2ccc(O[C@H]3c4cc(Cl)ccc4C[C@@H]3N(C)C)cc2)cc1` , test system: absorption of sodium from the intestinal lumen
output: 84

input: # return Urine Na % of control for `CN(C)[C@H]1Cc2ccccc2[C@@H]1Oc1ccc(S(=O)(=O)NCCOCCOCCNC(=O)NCCCCNC(=O)NCCOCCOCCNS(=O)(=O)c2ccc(O[C@H]3c4ccccc4C[C@@H]3N(C)C)cc2)cc1` , test system: absorption of sodium from the intestinal lumen
output: 69

input: # return Urine Na % of control for `CCCCCCCCOCCOCCOCCOCCOCCOC(=O)NCCOCCOCCOCCNS(=O)(=O)c1cccc([C@@H]2CN(C)Cc3c(Cl)cc(Cl)cc32)c1` , test system: absorption of sodium from the intestinal lumen
output: 86

input: # return Urine Na % of control for `CC(C)CCC[C@@H](C)[C@H]1CC[C@H]2[C@@H]3CC=C4C[C@@H](OC(=O)NCCOCCOCCOCCNS(=O)(=O)c5cccc([C@@H]6CN(C)Cc7c(Cl)cc(Cl)cc76)c5)CC[C@]4(C)[C@H]3CC[C@]12C` , test system: absorption of sodium from the intestinal lumen
output: 81

input: # return Urine Na % of control for `CN1Cc2c(Cl)cc(Cl)cc2[C@H](c2cccc(S(=O)(=O)NCCOCCOCCOCCNC(=O)CN3CCN(c4nc(N5CCN(CC(=O)NCCOCCOCCOCCNS(=O)(=O)c6cccc([C@@H]7CN(C)Cc8c(Cl)cc(Cl)cc87)c6)CC5)nc(N5CCN(CC(=O)NCCOCCOCCOCCNS(=O)(=O)c6cccc([C@@H]7CN(C)Cc8c(Cl)cc(Cl)cc87)c6)CC5)n4)CC3)c2)C1` , test system: absorption of sodium from the intestinal lumen
output: 82

Values compiled from patent US20240366589A1.
